biological target: human GPBAR1 receptor (Homo sapiens, UniProt Q8TDU6); construct: expressed in transfected cells; assay: functional cAMP assay in CHO-dhfr(minus) cells expressing human GPBAR1 receptors; assay type: cell-based; conditions: human EC50, functional cAMP assay, 30 min at 30° C.
Quantity Name: pEC50
Answer as the number alone; pEC50 is minus log10 of concentration in mol/L.

query: Sample Cn1cc(/C(CC(c2ccc(-c3ccc(C(=O)O)cc3)cc2)c2ccc(Cl)cc2F)=N/O)ccc1=O (stereo not shown) [Example 238] — what was its pEC50?
result: 7.64

query: Sample Cc1cc(Cl)ccc1[C@@H](C/C(=N\O)c1ccc(=O)n(C)c1)c1ccc(-c2ccc(S(N)(=O)=O)cc2)cc1 (single isomer, unassigned) — what was its pEC50?
result: 7.74

query: Sample ON=C(CC(c1ccccc1)c1ccc(Br)cc1)c1ccnc(Cl)c1 (racemic) — what was its pEC50?
result: 5.87

query: Sample Cn1cc(/C(CC(c2ccc(C(=O)NC3CCOCC3)c(F)c2)c2ccccc2Cl)=N/O)ccc1=O (stereo not shown) — what was its pEC50?
result: 5.94

----------
Molecular target: human GPBAR1 receptor (Homo sapiens)
Construct: expressed in transfected cells
Assay: functional cAMP assay in CHO-dhfr(minus) cells expressing human GPBAR1 receptors
Type: cell-based
Conditions: human EC50, functional cAMP assay, 30 min at 30° C.
Experimental: The final clone was verified by DNA sequence analysis. The plasmid was transfected into CHO cells deficient in dihydrofolate reductase activity (CHO-dhfr−) using Lipofectamine plus (Invitrogen). […] The growth medium was exchanged with Krebs Ringer Bicarbonate buffer with 1 mM IBMX and incubated at 30° C. for 30 min. […] The time-resolved energy transfer is measured by a TRF reader (Evotec Technologies GmbH, Hamburg Germany), equipped with a ND:YAG laser as excitation source. […]
I'd be grateful if you could share measured pEC50 for these entries.
Answer as the number alone; pEC50 is minus log10 of concentration in mol/L.

query: Sample Cn1cc(/C(CC(c2ccc(S(C)(=O)=O)cc2)c2ccc(Cl)cc2F)=N/O)ccc1=O (stereo not shown) — what was its pEC50?
result: 7.08

query: Sample Cn1cc(/C(C[C@@H](c2ccc(-c3ccc(C(=O)O)s3)cc2)c2ccc(Cl)cc2F)=N/O)ccc1=O — what was its pEC50?
result: 7.21

query: Sample Cc1ccccc1C(C/C(=N\O)c1ccc(=O)n(C)c1)c1ccc(Oc2ccc(C(=O)O)c(F)c2)cc1F (stereo not shown) — what was its pEC50?
result: 5.44

query: Sample Cc1cc(C(C[C@@H](c2ccc(-c3ccc(C(=O)N[C@H](C)c4ccccc4)cc3)cc2)c2ccccc2C)=NO)ccn1 (racemic) — what was its pEC50?
result: 6.75

----------
target: human GPBAR1 receptor (Homo sapiens); construct: expressed in transfected cells; experiment: functional cAMP assay in CHO-dhfr(minus) cells expressing human GPBAR1 receptors; type: cell-based; settings: human EC50, functional cAMP assay, 30 min at 30° C.
Quantity Name: pEC50
Answer as the number alone; pEC50 is minus log10 of concentration in mol/L.

query: Sample OCc1ccc(-c2ccc(C(C/C(=N\O)c3ccncc3)c3ccccc3)cc2)cc1 (stereo not shown) [Example 27] — what was its pEC50?
result: 7.04

query: Sample Cn1cc(/C(CC(c2ccc(Br)cc2)c2ccccc2F)=N/O)ccc1=O (stereo not shown) [Example 243] — what was its pEC50?
result: 7.70

query: Sample Cc1cc(F)ccc1C(C/C(=N\O)c1ccc(=O)n(C)c1)c1ccc(Br)cc1 (stereo not shown) [Example 224] — what was its pEC50?
result: 8.22

query: Sample Cc1cc(F)ccc1C(C/C(=N\O)c1ccc(=O)n(C)c1)c1ccc(-c2ccc(NC(=O)CC(=O)O)cc2)cc1 (stereo not shown) [Example 400] — what was its pEC50?
result: 7.31

----------
molecular target: human GPBAR1 receptor (Homo sapiens, UniProt Q8TDU6); construct: expressed in transfected cells; assay: functional cAMP assay in CHO-dhfr(minus) cells expressing human GPBAR1 receptors; assay type: cell-based; conditions: human EC50, functional cAMP assay, 30 min at 30° C.
pEC50: −log10 of the molar value.
Classify by measured pEC50: y if it is equal to or exceeds 7, n if it is smaller.

query: Has CCCC(C/C(=N\O)c1ccc(=O)n(C)c1)c1ccc(Br)cc1 (centres unmarked) [Example 174] a recorded pEC50 greater than or equal to 7?
result: n

query: Has Cc1ccccc1C(C/C(=N\O)c1ccc(=O)n(C)c1)c1ccc(-c2ccccc2C(=O)O)cc1F (centres unmarked) [Example 236] a recorded pEC50 greater than or equal to 7?
result: n

query: Has CC(=O)N1CCC(c2ccc([C@@H](C/C(=N\O)c3ccnc(C)c3)c3ccc(Cl)cc3C)cc2)CC1 [Example 511] a recorded pEC50 greater than or equal to 7?
result: y

query: Has O=C(O)c1cccc(-c2ccc(C(C/C(=N\O)c3ccncc3)c3ccccc3)cc2)c1 (centres unmarked) [Example 76] a recorded pEC50 greater than or equal to 7?
result: n

query: Has Cc1cc(Cl)ccc1[C@@H](C/C(=N\O)c1ccc(=O)n(C)c1)c1ccc(-c2ccc(C(=O)O)cc2)cc1 (single isomer, unassigned) [Example 394] a recorded pEC50 greater than or equal to 7?
result: n

query: Has Cc1cc(/C(CC(c2ccccc2)c2ccccc2)=N/O)cc(F)n1 [Example 56] a recorded pEC50 greater than or equal to 7?
result: n

----------
Target: human GPBAR1 receptor (Homo sapiens)
Construct: expressed in transfected cells
Test: functional cAMP assay in CHO-dhfr(minus) cells expressing human GPBAR1 receptors
Format: cell-based
Details: human EC50, functional cAMP assay, 30 min at 30° C.
Description: The final clone was verified by DNA sequence analysis. The plasmid was transfected into CHO cells deficient in dihydrofolate reductase activity (CHO-dhfr−) using Lipofectamine plus (Invitrogen). […] The growth medium was exchanged with Krebs Ringer Bicarbonate buffer with 1 mM IBMX and incubated at 30° C. for 30 min. […] The time-resolved energy transfer is measured by a TRF reader (Evotec Technologies GmbH, Hamburg Germany), equipped with a ND:YAG laser as excitation source. […]
I'd be grateful if you could share measured pEC50 for these entries.
Answer as the number alone; pEC50 is minus log10 of concentration in mol/L.

query: Sample Cc1cc(/C(C[C@H](c2ccc(NCC(CCl)C(=O)O)cc2)c2ccccc2C)=N/O)ccn1 (stereo partly shown) — what was its pEC50?
result: 7.72

query: Sample Cc1cc(/C(C[C@H](c2ccc(C3=CCN(C(=O)OC(C)(C)C)CC3)cc2)c2ccccc2C)=N/O)ccn1 — what was its pEC50?
result: 6.87

query: Sample Cc1cc(C(=NO)C(Cc2ccc(Br)cc2)c2ccccc2)cc(C)n1 (racemic) — what was its pEC50?
result: 5.94

query: Sample Cc1cc(/C(C[C@H](c2ccc([C@H]3CC[C@H](C(=O)O)CC3)cc2)c2ccc(Cl)cc2C)=N/O)ccn1 — what was its pEC50?
result: 7.55

query: Sample Cc1ccccc1[C@H](C/C(=N\O)c1ccc(=O)n(C)c1)c1ccc(C2CCN(S(C)(=O)=O)CC2)cc1 — what was its pEC50?
result: 7.00

query: Sample CCS(=O)(=O)c1ccc(C(C/C(=N\O)c2ccc(=O)n(C)c2)c2ccc(Cl)cc2F)cc1 (stereo not shown) — what was its pEC50?
result: 6.50

query: Sample COC(=O)c1ccc(-c2ccc(C(C/C(=N\O)c3ccnc(C)c3)c3ccc(Cl)cc3F)cc2)cc1OC (stereo not shown) — what was its pEC50?
result: 6.57

----------
Biological target: human GPBAR1 receptor (Homo sapiens, UniProt Q8TDU6)
Construct: expressed in transfected cells
Sequence (Q8TDU6 1-330): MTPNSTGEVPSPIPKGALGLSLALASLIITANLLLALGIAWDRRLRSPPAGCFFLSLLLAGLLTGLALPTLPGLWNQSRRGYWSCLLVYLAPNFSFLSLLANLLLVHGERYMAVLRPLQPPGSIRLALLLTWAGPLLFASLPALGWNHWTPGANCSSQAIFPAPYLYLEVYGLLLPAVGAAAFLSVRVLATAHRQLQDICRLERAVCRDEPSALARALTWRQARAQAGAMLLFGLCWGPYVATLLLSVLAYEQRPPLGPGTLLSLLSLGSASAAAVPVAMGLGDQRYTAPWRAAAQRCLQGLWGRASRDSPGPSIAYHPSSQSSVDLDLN
Assay: functional cAMP assay in CHO-dhfr(minus) cells expressing human GPBAR1 receptors
Format: cell-based
Settings: human EC50, functional cAMP assay, 30 min at 30° C.
API: label(entry) gives YES if the entry's EC50 is strictly smaller than 60 nM; on equality or larger values it gives NO.

query: Lab note: EC50 threshold 60 nM. Does this molecule come in strictly under it? Cc1cc(/C(CC(c2cccc(S(C)(=O)=O)c2)c2ccccc2C)=N/O)ccn1 (stereo not drawn)
result: NO

query: Lab note: EC50 threshold 60 nM. Does this molecule come in strictly under it? Cc1cc(Cl)ccc1C(C/C(=N\O)c1ccc(=O)n(C)c1)c1ccc(OS(C)(=O)=O)c(F)c1 (stereo not drawn)
result: NO

query: Lab note: EC50 threshold 60 nM. Does this molecule come in strictly under it? CC(=O)N1CCN(c2ccc(C(CC(=NO)c3ccnc(C)c3)c3ccc(F)cc3F)cn2)CC1 (stereo not drawn)
result: NO

query: Lab note: EC50 threshold 60 nM. Does this molecule come in strictly under it? Cn1cc(/C(CC(c2ccc(-c3ccc(CC#N)cc3)cc2)c2ccc(Cl)cc2F)=N/O)ccc1=O (stereo not drawn)
result: NO

query: Lab note: EC50 threshold 60 nM. Does this molecule come in strictly under it? Cn1cc(/C(CC(c2ccc(-c3ccc(C(=O)O)cc3)cc2)c2ccccc2F)=N/O)ccc1=O (stereo not drawn)
result: NO

query: Lab note: EC50 threshold 60 nM. Does this molecule come in strictly under it? Cn1cc(/C(CC(c2ccc(F)cc2)c2ccc(Br)cc2)=N/O)ccc1=O (stereo not drawn)
result: YES

query: Lab note: EC50 threshold 60 nM. Does this molecule come in strictly under it? Cc1ccccc1[C@@H](C/C(=N\O)c1cnc(=O)n(C)c1)c1ccc(Br)cc1
result: NO

query: Lab note: EC50 threshold 60 nM. Does this molecule come in strictly under it? COCc1nnc(-c2ccc([C@@H](C/C(=N\O)c3ccnc(C)c3)c3ccccc3C)cc2)o1
result: YES

query: Lab note: EC50 threshold 60 nM. Does this molecule come in strictly under it? Cc1cc(/C(=N/O)C(C)[C@H](c2ccc(Br)cc2)c2ccc(Cl)cc2C)ccn1 (stereo partly drawn)
result: NO

Just for reference, patent US8765730B2 is where these values come from.
